- EXPERIMENTAL SYSTEM: Sodium-dependent serotonin transporter (Rattus norvegicus) (UniProt P31652)
- Sequence (P31652 whole entry): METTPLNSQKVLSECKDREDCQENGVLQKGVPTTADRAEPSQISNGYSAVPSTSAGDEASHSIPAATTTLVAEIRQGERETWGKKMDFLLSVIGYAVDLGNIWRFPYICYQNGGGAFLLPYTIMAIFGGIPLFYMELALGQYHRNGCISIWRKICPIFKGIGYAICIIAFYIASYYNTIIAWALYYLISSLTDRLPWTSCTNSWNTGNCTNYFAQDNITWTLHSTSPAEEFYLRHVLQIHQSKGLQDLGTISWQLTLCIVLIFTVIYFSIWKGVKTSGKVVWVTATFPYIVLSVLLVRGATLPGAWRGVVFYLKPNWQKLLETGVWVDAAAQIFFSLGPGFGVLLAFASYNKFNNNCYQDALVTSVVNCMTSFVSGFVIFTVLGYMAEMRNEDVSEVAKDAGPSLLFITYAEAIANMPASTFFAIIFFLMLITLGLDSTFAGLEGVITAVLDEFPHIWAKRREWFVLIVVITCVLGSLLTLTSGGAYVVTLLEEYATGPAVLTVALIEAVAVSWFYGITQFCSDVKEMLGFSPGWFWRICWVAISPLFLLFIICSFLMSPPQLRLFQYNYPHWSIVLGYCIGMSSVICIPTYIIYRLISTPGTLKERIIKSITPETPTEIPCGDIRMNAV
- PROTOCOL TEXT: Inhibition of SERT in Wistar rat RBL-2H3 cells assessed as decrease in fluorescence intensity at 10 uM preincubated for 2 hrs followed by APP+ addition and measured after 1 hr by fluorescence based assay
- Format: cell-based
- MEASUREMENT CONTEXT: time 3.0 hrs
Active and inactive are the calls of the source. The calls are words filed in the database; no cut-off is given here.
METRIC: Activity

// known answers, use as guide
1) Cc1ccc(C2(CN3CCCCCC3)OC(=O)c3ccccc32)cc1 (stereo not given) :: inactive
2) Cc1ccc(C2(CN3CCCC(C)C3)OC(=O)c3ccccc32)cc1 (stereo not given) :: inactive
3) O=C1OC(CN2CCCC2)(c2ccccc2)c2ccccc21 (stereo not given) :: Active
4) CC(=O)N1CCN(CC2(c3ccccc3)OC(=O)c3ccccc32)CC1 (stereo not given) :: inactive
5) O=C1OC(CN2CCCCCC2)(c2ccc(Cl)cc2)c2ccccc21 (stereo not given) :: Active

*Q* Which Activity is listed for CCOC(=O)C1CCN(CC2(c3ccccc3)OC(=O)c3ccccc32)CC1 (stereo not given) ?
*A* inactive

*Q* Please do the same for CC(=O)N1CCN(CC2(c3ccc(Cl)cc3)OC(=O)c3ccccc32)CC1 (stereo not given) as well.
*A* Active

*Q* Please do the same for CNCCC(Oc1ccc(C(F)(F)F)cc1)c1ccccc1 (stereo not given) as well.
*A* Active

*Q* Please do the same for CCOC(=O)C1CCN(CC2(c3ccc(Cl)cc3)OC(=O)c3ccccc32)CC1 (stereo not given) as well.
*A* inactive

====

- Test system: RBL-2H3
- PROTOCOL TEXT: Cytotoxicity against Wistar rat RBL-2H3 cells assessed as cell viability at 1 uM incubated for 24 hrs by MTT assay
- Format: functional
- MEASUREMENT CONTEXT: read-out: Activity
METRIC: viability at 1 µM (%)
Numbers only here, please. The scale is %.

*Q* Which viability at 1 µM is listed for CCN(CC)CC1(c2ccc(Cl)cc2)OC(=O)c2ccccc21 (stereo not given) ?
*A* 105

*Q* Please do the same for CCOC(=O)C1CCN(CC2(c3ccc(Cl)cc3)OC(=O)c3ccccc32)CC1 (stereo not given) as well.
*A* 99

*Q* Please do the same for O=C1OC(CN2CCCCCC2)(c2ccc(Cl)cc2)c2ccccc21 (stereo not given) as well.
*A* 104

*Q* Please do the same for O=C1OC(CN2CCCCC2)(c2ccccc2)c2ccccc21 (stereo not given) as well.
*A* 99.2

*Q* Please do the same for Cc1ccc(C2(CN3CCCCCC3)OC(=O)c3ccccc32)cc1 (stereo not given) as well.
*A* 98.8

*Q* Please do the same for O=C1OC(CN2CCCCCC2)(c2ccccc2)c2ccccc21 (stereo not given) as well.
*A* 97.8

*Q* Please do the same for Cc1ccc(C2(CN3CCCC(C)C3)OC(=O)c3ccccc32)cc1 (stereo not given) as well.
*A* 97.6

*Q* Please do the same for O=C1OC(CN2CCCCC2)(c2ccc(Cl)cc2)c2ccccc21 (stereo not given) as well.
*A* 97.5

*Q* Please do the same for CCN(CC)CC1(c2ccc(C)cc2)OC(=O)c2ccccc21 (stereo not given) as well.
*A* 101

*Q* Please do the same for CC(=O)N1CCN(CC2(c3ccc(Cl)cc3)OC(=O)c3ccccc32)CC1 (stereo not given) as well.
*A* 99.8

*Q* Please do the same for CC1CCCN(CC2(c3ccccc3)OC(=O)c3ccccc32)C1 (stereo not given) as well.
*A* 92.7

*Q* Please do the same for CC1CCCN(CC2(c3ccc(Cl)cc3)OC(=O)c3ccccc32)C1 (stereo not given) as well.
*A* 99.2

*Q* Please do the same for CCOC(=O)C1CCN(CC2(c3ccc(C)cc3)OC(=O)c3ccccc32)CC1 (stereo not given) as well.
*A* 102

*Q* Please do the same for Cc1ccc(C2(CN3CCCCC3)OC(=O)c3ccccc32)cc1 (stereo not given) as well.
*A* 101

*Q* Please do the same for CCN(CC)CC1(c2ccccc2)OC(=O)c2ccccc21 (stereo not given) as well.
*A* 106

*Q* Please do the same for CC(=O)N1CCN(CC2(c3ccccc3)OC(=O)c3ccccc32)CC1 (stereo not given) as well.
*A* 102

*Q* Please do the same for CC(=O)N1CCN(CC2(c3ccc(C)cc3)OC(=O)c3ccccc32)CC1 (stereo not given) as well.
*A* 93.3

*Q* Please do the same for CCOC(=O)C1CCN(CC2(c3ccccc3)OC(=O)c3ccccc32)CC1 (stereo not given) as well.
*A* 99.7

*Q* Please do the same for O=C1OC(CN2CCCC2)(c2ccccc2)c2ccccc21 (stereo not given) as well.
*A* 119

*Q* Please do the same for Cc1ccc(C2(CN3CCCC3)OC(=O)c3ccccc32)cc1 (stereo not given) as well.
*A* 94.8
